Where do these numbers come from? They come from the supplement of paper PMC11061612.

Quick list: Bliss excess per entry.
Tested on: NTERA-2-cl-D1 (Other Solid Carcinomas);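 note: after 72 h of two-drug dosing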
Experiment: Bliss excess, mean over the matrix (fraction); higher = more synergy
PROPERTY_NAME: Bliss excess

COMPOUND	NUMERIC_READOUT
CCN(CCO)CCCOc1ccc2c(Nc3cc(CC(=O)Nc4cccc(F)c4)[nH]n3)ncnc2c1 [AZD2811] + C[C@@H]1COCCN1C2=NC(=NC(=C2)C3(CC3)[S@](=N)(=O)C)C4=C5C=CNC5=NC=C4 [AZD6738] (first compound max 1 µM, 7x7, partner max 10 µM)	-0.065
CCc1c2c(nc3ccc(O)cc13)-c1cc3c(c(=O)n1C2)COC(=O)[C@]3(O)CC [SN-38] + CN(C)CCCOc1ccc(-c2ccc3ncc4c(c3c2)n(C2CCOCC2)c(=O)n4C)cn1 [AZD0156] (first compound max 0.3 µM, 7x7, partner max 1 µM)	-0.0591
CCN(CCO)CCCOc1ccc2c(Nc3cc(CC(=O)Nc4cccc(F)c4)[nH]n3)ncnc2c1 [AZD2811] + O=C(c1cc(Cc2n[nH]c(=O)c3ccccc23)ccc1F)N1CCN(C(=O)C2CC2)CC1 [Olaparib] (first compound max 1 µM, 7x7, partner max 10 µM)	0.066
COc1nnc2ccc(N3CCC(c4ccc(OCCN5CCN(C)C(=O)[C@H]5C)cc4)CC3)nn12 [AZD5153] + C[C@@H]1COCCN1C2=NC(=NC(=C2)C3(CC3)[S@](=N)(=O)C)C4=C5C=CNC5=NC=C4 [AZD6738] (first compound max 1 µM, 7x7, partner max 10 µM)	0.0005
